# System: cytoplasmic kinase domain of human IGF-1R (IGF-1R-GST) (Homo sapiens, UniProt P08069)
# Construct: cytoplasmic kinase domain of human IGF-1R (amino acids 964-1370); GST (glutathione-S-transferase)
# Sequence (P08069 964-1367 limits assumed): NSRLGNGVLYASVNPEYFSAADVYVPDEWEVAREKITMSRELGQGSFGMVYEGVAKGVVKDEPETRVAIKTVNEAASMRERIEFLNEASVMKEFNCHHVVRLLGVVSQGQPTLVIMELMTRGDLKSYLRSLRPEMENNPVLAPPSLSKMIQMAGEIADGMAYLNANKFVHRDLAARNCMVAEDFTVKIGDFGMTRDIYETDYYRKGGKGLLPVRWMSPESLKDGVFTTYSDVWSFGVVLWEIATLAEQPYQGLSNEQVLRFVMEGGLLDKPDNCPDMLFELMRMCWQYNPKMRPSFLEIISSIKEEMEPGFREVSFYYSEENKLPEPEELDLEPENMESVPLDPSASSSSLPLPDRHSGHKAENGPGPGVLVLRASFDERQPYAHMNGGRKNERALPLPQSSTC
# Assay Explanation: Insulin-like growth factor-1 receptor (IGF-1R) kinase assay (DELFIA)
# Cond: IGF-1R-GST kinase activity, read-out: IGF1R IC50
pIC50: −log10 of the molar value.
Measured pIC50, listed per entry.
Property Label: pIC50

>  <Compound>
COc1cc(N2CC3CC2CN3CC2CC2)ccc1Nc1ncc(C(F)(F)F)c(NCc2cccc3c2C(C)(C)C(=O)N3)n1 (centres unmarked)

>  <Recorded Number>
8.70

$$$$
>  <Compound>
Cc1cc(Nc2ncc(Br)c(NCc3cccc4c3C(C)(C)C(=O)N4)n2)ccc1C1CCN(CC(C)(C)O)CC1

>  <Recorded Number>
10.00

$$$$
>  <Compound>
COc1cc(N2CCN(CC(C)(C)O)CC2)ccc1Nc1ncc(Cl)c(NCc2cccc3c2C(C)(C)C(=O)N3)n1

>  <Recorded Number>
8.52

$$$$
>  <Compound>
COCCN(C)C1CCN(c2ccc(Nc3ncc(C(F)(F)F)c(NCc4cccc5c4CC(=O)N5)n3)c(OC)c2)CC1

>  <Recorded Number>
8.05

$$$$
>  <Compound>
COc1cc(N2CCN(CCO)CC2)ccc1Nc1ncc(C(F)(F)F)c(NCc2cccc3c2CC(=O)N3)n1

>  <Recorded Number>
7.74

$$$$
>  <Compound>
CNC(=O)CN1CCCC(c2ccc(Nc3ncc(Cl)c(NCc4cccc5c4C(C)(C)C(=O)N5)n3)c(C)c2)C1 (racemic)

>  <Recorded Number>
8.70

$$$$
>  <Compound>
COc1cc(N2CCN(C3COC3)CC2)ccc1Nc1ncc(C(F)(F)F)c(NCc2cccc3c2C(C)(C)C(=O)N3)n1

>  <Recorded Number>
8.40

$$$$
>  <Compound>
COc1cc(C2CCN(C(C)C)CC2)ccc1Nc1ncc(C(F)(F)F)c(NCc2cccc3c2C(C)(C)C(=O)N3)n1

>  <Recorded Number>
9.39

$$$$
>  <Compound>
COc1cc(N2CCN(C(C)C)CC2)ccc1Nc1ncc(C(F)(F)F)c(NCc2cccc3c2CC(=O)N3)n1

>  <Recorded Number>
8.00

$$$$
>  <Compound>
Cc1cc(C2CCN(CC(N)=O)CC2)ccc1Nc1ncc(Cl)c(NCc2cccc3c2C(C)(C)C(=O)N3)n1

>  <Recorded Number>
8.70

$$$$
>  <Compound>
CCc1cc(C2CCN(CC(C)(C)O)CC2)ccc1Nc1ncc(Cl)c(NCc2cccc3c2C(C)(C)C(=O)N3)n1

>  <Recorded Number>
8.22

$$$$
>  <Compound>
COc1cc(N2CCN(C(=O)CCCN(C)C)CC2)ccc1Nc1ncc(Cl)c(NCc2cccc3c2C(C)(C)C(=O)N3)n1

>  <Recorded Number>
8.70

$$$$
>  <Compound>
CC1(C)C(=O)Nc2cccc(CNc3nc(Nc4ccc(C5CCN(CCO)CC5)cc4)ncc3Br)c21

>  <Recorded Number>
9.00

$$$$
>  <Compound>
Cc1cc(N2CCN(CC(C)(C)O)CC2)ccc1Nc1ncc(Cl)c(NCc2cccc3c2C(C)(C)C(=O)N3)n1

>  <Recorded Number>
8.40

$$$$

* * *

Listing: pEC50 of selected compounds
# Tested on: TC-71 (Ewing's sarcoma) cells
# Assay Explanation: Cell proliferation assay, TC-71 (Alamar Blue)
# Format: cell-based
# Cond: 72 h with compound, EC50 ranges as class symbols
pEC50: −log10 of the molar value.

>  <Compound>
Cc1cc(C2CCCN(CCO)C2)ccc1Nc1ncc(Cl)c(NCc2cccc3c2C(C)(C)C(=O)N3)n1 (racemic) [Example I-382]

>  <pEC50>
> 7.30

$$$$
>  <Compound>
Cc1cc(C2CCCN(CC(O)C(F)(F)F)C2)ccc1Nc1ncc(Br)c(NCc2cccc3c2C(C)(C)C(=O)N3)n1 (racemic) [Example I-316]

>  <pEC50>
6.60 to 7.30

$$$$
>  <Compound>
COc1cc(C2CCN(C(=O)C(C)(C)O)CC2)ccc1Nc1ncc(Cl)c(NCc2cccc3c2C(C)(C)C(=O)N3)n1 [Example I-300]

>  <pEC50>
> 7.30

$$$$
>  <Compound>
COCCN1CCCC(c2ccc(Nc3ncc(Cl)c(NCc4cccc5c4C(C)(C)C(=O)N5)n3)c(C)c2)C1 (racemic) [Example I-373]

>  <pEC50>
6.60 to 7.30

$$$$
>  <Compound>
COCCN1CCC(c2ccc(Nc3ncc(C(F)(F)F)c(NCc4cccc5c4C(C)(C)C(=O)N5)n3)c(C)c2)CC1 [Example I-352]

>  <pEC50>
> 7.30

$$$$
>  <Compound>
COCCN1CCCC(c2ccc(Nc3ncc(C(F)(F)F)c(NCc4cccc5c4C(C)(C)C(=O)N5)n3)c(OC)c2)C1 (racemic) [Example I-350]

>  <pEC50>
> 7.30

$$$$

* * *

# System: cytoplasmic kinase domain of human IGF-1R (IGF-1R-GST) (Homo sapiens, UniProt P08069)
# Construct: cytoplasmic kinase domain of human IGF-1R (amino acids 964-1370); GST (glutathione-S-transferase)
# Assay Explanation: Insulin-like growth factor-1 receptor (IGF-1R) kinase assay (DELFIA)
# Cond: IGF-1R-GST kinase activity, read-out: IGF1R IC50
Property Label: IC50

>  <Compound>
CNC1(C(=O)N2CCC(c3ccc(Nc4ncc(Cl)c(NCc5cccc6c5C(C)(C)C(=O)N6)n4)cc3)CC2)CC1 [Example I-299]

>  <System>
cytoplasmic kinase domain of human IGF-1R (IGF-1R-GST) (Homo sapiens, UniProt P08069)

>  <Result>
8 nM

$$$$
>  <Compound>
COc1cc(N2CCN(C3CCN(C)CC3)[C@H](C)C2)ccc1Nc1ncc(C(F)(F)F)c(NCc2cccc3c2C(C)(C)C(=O)N3)n1 [Example I-132]

>  <System>
cytoplasmic kinase domain of human IGF-1R (IGF-1R-GST) (Homo sapiens, UniProt P08069)

>  <Result>
0.6 nM

$$$$
>  <Compound>
CNC(=O)CN1CCC(c2ccc(Nc3ncc(Cl)c(NCc4cccc5c4C(C)(C)C(=O)N5)n3)cc2)CC1 [Example I-206]

>  <System>
cytoplasmic kinase domain of human IGF-1R (IGF-1R-GST) (Homo sapiens, UniProt P08069)

>  <Result>
5 nM

$$$$

* * *

# System: cytoplasmic kinase domain of human IGF-1R (IGF-1R-GST) (Homo sapiens, UniProt P08069)
# Construct: cytoplasmic kinase domain of human IGF-1R (amino acids 964-1370); GST (glutathione-S-transferase); made in house; host or cells: High Five insect cells (Invitrogen)
# Assay Explanation: Insulin-like growth factor-1 receptor (IGF-1R) kinase assay (DELFIA)
# Assay type: biochemical
# Cond: IGF-1R-GST kinase activity, read-out: IGF1R IC50
In plain terms, low IC50, meaning strictly below 2 nM, gives true (1), and everything else gives false (0).

>  <Compound Smiles>
CC(C)(O)CN1CCC(c2ccc(Nc3ncc(C(F)(F)F)c(NCc4cccc5c4C(C)(C)C(=O)N5)n3)c(OC(F)F)c2)CC1

>  <Group>
false (0)

$$$$
>  <Compound Smiles>
COc1cc(N2CCN(Cc3ccncc3)CC2)ccc1Nc1ncc(C(F)(F)F)c(NCc2cccc3c2CC(=O)N3)n1

>  <Group>
false (0)

$$$$
>  <Compound Smiles>
COc1cc(N2CCN(Cc3ccco3)CC2)ccc1Nc1ncc(C(F)(F)F)c(NCc2cccc3c2C(C)(C)C(=O)N3)n1

>  <Group>
false (0)

$$$$
>  <Compound Smiles>
COc1cc(C2CCN(C(=O)CO)CC2)ccc1Nc1ncc(Cl)c(NCc2cccc3c2C(C)(C)C(=O)N3)n1

>  <Group>
true (1)

$$$$
>  <Compound Smiles>
COc1cc(N2CCN(C)CC2)ccc1Nc1ncc(C(F)(F)F)c(NCc2cccc3c2C(C)(C)C(=O)N3)n1

>  <Group>
true (1)

$$$$

* * *

# System: cytoplasmic kinase domain of human IGF-1R (IGF-1R-GST) (Homo sapiens)
# Construct: cytoplasmic kinase domain of human IGF-1R (amino acids 964-1370); GST (glutathione-S-transferase)
# Assay Explanation: Insulin-like growth factor-1 receptor (IGF-1R) kinase assay (DELFIA)
# Cond: IGF-1R-GST kinase activity, read-out: IGF1R IC50
# IC50 annotations

>  <Compound>
CCOc1cc(N2CCN(C(C)C)CC2)ccc1Nc1ncc(C(F)(F)F)c(NCc2cccc3c2C(C)(C)C(=O)N3)n1

>  <IC50 / nM>
1

$$$$
>  <Compound>
COCCN1CCN(c2ccc(Nc3ncc(Cl)c(NCc4cccc5c4C(C)(C)C(=O)N5)n3)c(OC)c2)CC1

>  <IC50 / nM>
3

$$$$
>  <Compound>
COc1cc(N2CCN(C3CCN(C4CC4)CC3)CC2)ccc1Nc1ncc(C(F)(F)F)c(NCc2cccc3c2CC(=O)N3)n1

>  <IC50 / nM>
5

$$$$
>  <Compound>
CCc1cc(C2CCN(CCOC)CC2)ccc1Nc1ncc(Br)c(NCc2cccc3c2C(C)(C)C(=O)N3)n1

>  <IC50 / nM>
3

$$$$
>  <Compound>
Cc1cc(N2CCN(C)CC2)ccc1Nc1ncc(Cl)c(NCc2cccc3c2C(C)(C)C(=O)N3)n1

>  <IC50 / nM>
3

$$$$
>  <Compound>
COCCN1CCCC(c2ccc(Nc3ncc(Cl)c(NCc4cccc5c4C(C)(C)C(=O)N5)n3)c(OC)c2)C1 (racemic)

>  <IC50 / nM>
0.8

$$$$
>  <Compound>
COc1cc(N2CCC(N3CCN(C4CCN(C)CC4)CC3)CC2)ccc1Nc1ncc(C(F)(F)F)c(NCc2cccc3c2CC(=O)N3)n1

>  <IC50 / nM>
7

$$$$
>  <Compound>
COc1cc(N2CCN(C(C)=O)CC2)ccc1Nc1ncc(C(F)(F)F)c(NCc2cccc3c2C(C)(C)C(=O)N3)n1

>  <IC50 / nM>
3

$$$$
>  <Compound>
COCCN1CCC(c2ccc(Nc3ncc(Cl)c(NCc4cccc5c4C(C)(C)C(=O)N5)n3)cc2C)CC1

>  <IC50 / nM>
0.6

$$$$
>  <Compound>
CN(C)CC(=O)N1CCC(c2ccc(Nc3ncc(C(F)(F)F)c(NCc4cccc5c4C(C)(C)C(=O)N5)n3)cc2)CC1

>  <IC50 / nM>
2

$$$$
